Hey, just so you know, these numbers are from patent US20260317324A1.

Target: BRAF V600E (Homo sapiens, UniProt P15056, V600E)
Construct: endogenous C-terminal HiBiT fusion tag on BRAF V600E allele; endogenous in cells; host or cells: A375 clone 1F10 (CRISPR-Cas9 knock-in of the HiBiT tag; parental A375 from ATCC)
Sequence (P15056 whole entry V600E, the tested form may be a part): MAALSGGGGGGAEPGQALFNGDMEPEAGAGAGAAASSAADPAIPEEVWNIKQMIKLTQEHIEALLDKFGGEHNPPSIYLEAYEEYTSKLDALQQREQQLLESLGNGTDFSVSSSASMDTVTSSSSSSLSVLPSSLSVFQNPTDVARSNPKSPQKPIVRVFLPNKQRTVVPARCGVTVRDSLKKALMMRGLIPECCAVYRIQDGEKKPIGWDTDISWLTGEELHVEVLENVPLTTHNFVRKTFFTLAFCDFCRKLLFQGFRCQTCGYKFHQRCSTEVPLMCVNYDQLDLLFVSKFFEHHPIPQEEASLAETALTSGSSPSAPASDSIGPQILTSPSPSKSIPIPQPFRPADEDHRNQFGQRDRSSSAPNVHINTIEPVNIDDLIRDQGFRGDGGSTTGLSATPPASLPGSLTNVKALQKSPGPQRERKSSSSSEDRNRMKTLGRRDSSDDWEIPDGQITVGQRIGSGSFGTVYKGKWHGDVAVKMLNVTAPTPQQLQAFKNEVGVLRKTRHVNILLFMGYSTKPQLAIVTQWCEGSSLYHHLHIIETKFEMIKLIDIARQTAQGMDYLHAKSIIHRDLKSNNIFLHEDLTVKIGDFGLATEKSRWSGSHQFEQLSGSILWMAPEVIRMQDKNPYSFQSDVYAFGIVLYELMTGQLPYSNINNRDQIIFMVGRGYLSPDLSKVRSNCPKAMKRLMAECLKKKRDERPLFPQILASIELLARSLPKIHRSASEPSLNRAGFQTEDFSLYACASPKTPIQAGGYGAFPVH
Test: BRAF HiBiT degradation assay, C-terminal HiBiT-tagged BRAF V600E A375 cells (clone 1F10), Nano-Glo HiBiT Lytic assay
Assay type: cell-based
Conditions: A375 (BRAF V600E); DC50 at 50%: fitted conc. at Y=50
Measured DC50, listed per entry.
quantity name: DC50

{"compound": "CCCS(=O)(=O)Nc1cccc(-c2cn(-c3ccc(N4CCN(C(=O)C5CCN(c6ccc(C7CCC(=O)NC7=O)cc6)CC5)CC4)cc3)nc2-c2ccncc2)c1F (racemic) [Compound 26]", "value observed": "50 to 500 nM"}
{"compound": "CCCS(=O)(=O)Nc1cccc(-c2nc(C(C)(C)C)sc2-c2ccnc(Nc3ccc(C4CCN(CC5CCN(c6ccc(C(=O)NC7CCC(=O)NC7=O)cc6)CC5)CC4)cc3)n2)c1F (racemic) [Compound 171]", "value observed": "50 to 500 nM"}
{"compound": "CCCS(=O)(=O)Nc1cccc(-c2nc(C(C)(C)C)sc2-c2ccnc(NCC3CCN(CC4CCN(c5ccc([C@H]6CCC(=O)NC6=O)cc5)CC4)CC3)n2)c1F [Compound 145]", "value observed": "> 500 nM"}
